B1: SFRS1 (parent)
chain: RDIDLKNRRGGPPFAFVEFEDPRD

Variants of: B1
Assay: protein stability index of a GFP-peptide fusion (GPS, HEK-293T) (PSI 1-6); higher = more stable;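 note: lentivirally expressed fusions sorted by FACS into six bins by GFP to DsRed ratio, PSI derived from sequencing read proportions per bin multiplied by bin number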
Details: c terminus: a fixed tail appended
Quantity Measured: protein stability index
Please give only the number in your answer, with no unit.

Ask | Dear colleague, please send me the reported protein stability index for "F19H" when you can.
Reply | 3.95

Ask | Dear colleague, please send me the reported protein stability index for "E18H" when you can.
Reply | 2.51

Ask | Dear colleague, please send me the reported protein stability index for "G10C" when you can.
Reply | 3.22

Ask | Dear colleague, please send me the reported protein stability index for "G11W" when you can.
Reply | 3.1

Ask | Dear colleague, please send me the reported protein stability index for "R23N" when you can.
Reply | 4.24

Ask | Dear colleague, please send me the reported protein stability index for "D21E" when you can.
Reply | 3.99

Ask | Dear colleague, please send me the reported protein stability index for "R8Y" when you can.
Reply | 3.96

Ask | Dear colleague, please send me the reported protein stability index for "V17S" when you can.
Reply | 4.16

Ask | Dear colleague, please send me the reported protein stability index for "P13H" when you can.
Reply | 4.65
